Where do the numbers come from? From patent US20240400579A1.

Entries and their measured Ki follow.
target: human emopamil binding protein and human 7-dehydrocholesterol reductase co-expressing cell membrane (Homo sapiens (Human))
Sequence (Q15125 whole entry): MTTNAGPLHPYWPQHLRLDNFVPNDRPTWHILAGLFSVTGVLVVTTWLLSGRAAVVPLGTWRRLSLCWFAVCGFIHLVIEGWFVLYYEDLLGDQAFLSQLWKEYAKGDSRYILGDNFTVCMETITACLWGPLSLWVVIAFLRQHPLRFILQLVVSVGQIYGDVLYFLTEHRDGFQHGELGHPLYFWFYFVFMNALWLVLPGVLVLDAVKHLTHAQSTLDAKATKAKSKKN
OBSERVED_PROPERTY: Ki (µM)

[[record]]
compound = "C[C@@H](Cc1ccc(C(F)(F)F)nc1)CN1CCC2(C1)CS(=O)(=O)C2 (single isomer, unassigned) [118A*]"
readout_units = "µM"
measured_number = 0.0221

[[record]]
compound = "C[C@@H](Cc1ccc(C2CCC(F)(F)CC2)c(Cl)c1)CN1CCC2(C1)CS(=O)(=O)C2 (single isomer, unassigned) [117A*]"
readout_units = "µM"
measured_number = 0.00943

[[record]]
compound = "O=S1(=O)CC2(CCN(CCOc3ccnc([C@H]4CC[C@@H](C(F)(F)F)CC4)c3)CC2)C1 [245A*]"
readout_units = "µM"
measured_number = 0.016

[[record]]
compound = "CC(C)(Cc1ccc(C2CCC(F)(F)CC2)c(Cl)c1)CN1CCC2(C1)CS(=O)(=O)C2"
readout_units = "µM"
measured_number = 0.00923

